Source: the MegaScale stability set (Tsuboyama et al. 2023)

B1: EHEE_rd2_0196 (parent)
chain: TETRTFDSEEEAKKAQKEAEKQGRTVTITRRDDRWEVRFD

# Variants of: B1
# RUN DESCRIPTION: folding stability dG (cDNA display proteolysis); higher = more stable
# CONDITION DETAILS: PBS, room temperature
The following variants are listed with their measured folding stability dG values.
Numbers only; they are read as kJ/mol.

Field: example entries. Status: answers known.
| MUTATION LIST | PROPERTY MEASURED | NUMBER |
| --- | --- | --- |
| R30W | folding stability dG | 11.2 |
| R38T | folding stability dG | 13.2 |
| E36M | folding stability dG | 8.61 |

Let's switch to this variant now.
Just so you know, measured folding stability dG for `T5S` came out at 11.8
